Values from the supplement of paper PMC11451515

System: P12-Ichikawa
Experiment: cell viability relative to DMSO control; higher = less cytotoxic
Settings: RPMI 5 mM glucose + 10% dialyzed FBS; 48 h; 0.00702 µM
The entries below come with measured cell viability values attached.
endpoint_name: cell viability (%)

compound=NC(=O)c1ccc(-c2nc(-c3ccc4c(c3)OCCO4)c(-c3ccccn3)[nH]2)cc1 measured_value=120
compound=COc1cc(N2CCC(C(N)=O)CC2)ccc1Nc1nc(N)c(Cl)c(Nc2ccccc2[S+](=O)([O-])C(C)C)n1 measured_value=98.8
compound=O=C(O)c1ccccc1C(=O)Nc1ccc(-c2ccccc2)cc1 measured_value=124
compound="CCCCCCCCCCCC(CC1OC(=O)C1CCCCCC)OC(=O)C(CC(C)C)NC=O (stereo not drawn)" measured_value=103
compound=C[C@H](NC(=O)C(=O)Nc1ccccc1C(C)(C)C)C(=O)N[C@@H](CC(=O)O)C(=O)COc1c(F)c(F)cc(F)c1F measured_value=112
compound=COc1cc2nccc(Oc3ccc(NC(=O)Nc4ccc(F)cc4F)c(F)c3)c2cc1OC measured_value=87.5
compound=Cc1c(C(=O)Nc2ccc(N3C[C@@H](C)O[C@@H](C)C3)nc2)cccc1-c1ccc(OC(F)(F)F)cc1 measured_value=119
compound=CC#C[C@]1(O)CC[C@H]2[C@@H]/3CCC/4=C/C(=O)CCC4=C3[C@H](C[C@]12C)C5=CC=C(C=C5)N(C)C measured_value=92.7
